tested target: human PAC1 receptor (Homo sapiens, UniProt P41586)
Construct: SHSY-5Y (human neuroblastoma cell line) and RG-2 (rat glioma cell line) cells endogenously express human and rat PAC1 receptors, respectively; endogenous in cells; host or cells: SHSY-5Y human neuroblastoma cells
Sequence (P41586 21-468): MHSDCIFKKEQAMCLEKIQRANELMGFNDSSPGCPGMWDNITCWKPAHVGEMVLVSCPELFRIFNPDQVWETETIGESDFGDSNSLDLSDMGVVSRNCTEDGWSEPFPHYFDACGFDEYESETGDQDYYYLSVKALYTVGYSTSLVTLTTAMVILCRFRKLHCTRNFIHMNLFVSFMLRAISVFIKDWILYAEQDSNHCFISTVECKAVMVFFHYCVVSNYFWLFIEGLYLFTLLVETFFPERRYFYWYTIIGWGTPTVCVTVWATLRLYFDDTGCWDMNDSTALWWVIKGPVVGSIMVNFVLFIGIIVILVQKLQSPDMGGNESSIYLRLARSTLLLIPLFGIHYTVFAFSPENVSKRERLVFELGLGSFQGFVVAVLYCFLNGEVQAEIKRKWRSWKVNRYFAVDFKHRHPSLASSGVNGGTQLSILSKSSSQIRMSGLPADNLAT
experiment: LANCE Ultra cAMP accumulation antagonist assay in SHSY-5Y cells;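 note: inhibition of cAMP accumulation evoked by PAC1 agonist at its EC80 in SHSY-5Y cells endogenously expressing receptor, 30 min preincubation then 15 min agonist, TR-FRET readout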
Format: cell-based
Bridges are numbered along the chain shown (N, C = ends). Where no end group is shown, it is not given here.
result type: IC50

[
  {
    "substance": "CDATCQFRKAIDDCYYRSHHSNVPGSVFKACMKQKKKEFKAG-NH2 (disulfide 1-5, 14-31) [compound 45]",
    "IC50": "0.01 to 1 nM"
  },
  {
    "substance": "CDATCQFRKAIDDCARQAHHSNVPGSVFKSCMKQKKKEWKAGH (disulfide 1-5, 14-31) [compound 24]",
    "IC50": "0.01 to 1 nM"
  },
  {
    "substance": "CDATCQFRKAIDDCVRQAHHSNVPGSVFKACMKQKKKEWKAGY (disulfide 1-5, 14-31) [SEQ ID NO 86]",
    "IC50": "0.01 to 1 nM"
  }
]

The substance listed as CDATCQFRKAIDDCSWFAIHSNVPGSVFKACMKQKKKEFKAG-NH2 (disulfide 1-5, 14-31) [compound 115] shows IC50 equal to 0.01 to 1 nM

The substance listed as CDATCQFRKAIDDCQKQAHHSNVPGSVFKACMKFRRFLWKAG-NH2 (disulfide 1-5, 14-31) [compound 128] shows IC50 equal to 0.01 to 1 nM

The substance listed as CDATCQFRKAIDDCQKQAHHSNVPGSVFKACMKQKKKEFKAGQ (disulfide 1-5, 14-31) [compound 174] shows IC50 equal to 1 to 100 nM

The substance listed as CDATCQFRKAIDDCQKQAHHSNVPGSVFKTCMKQKKKEFKAG-NH2 (disulfide 1-5, 14-31) [compound 146] shows IC50 equal to 0.01 to 1 nM
